Maximum mean fluorescence intensity by entry:
Molecular target: T1, monkey MSLN full-length protein (NCBI: XP_028696439.1) expressed on HEK293T-monkey MSLN cells (monkey)
T1 construct: Whole encoded precursor
T1 chain: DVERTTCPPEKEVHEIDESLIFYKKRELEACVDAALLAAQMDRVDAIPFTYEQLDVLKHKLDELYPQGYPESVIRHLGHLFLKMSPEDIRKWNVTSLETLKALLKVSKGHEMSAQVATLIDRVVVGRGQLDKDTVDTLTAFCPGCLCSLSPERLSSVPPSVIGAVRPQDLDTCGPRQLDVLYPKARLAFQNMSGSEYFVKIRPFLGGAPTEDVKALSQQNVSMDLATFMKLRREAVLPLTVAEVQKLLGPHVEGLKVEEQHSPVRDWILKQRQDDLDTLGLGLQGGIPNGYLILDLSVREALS
Assay: FACS on HEK293T-monkey MSLN cells
Answer with the value's number alone.

binder="S009-F3.16.1 (antibody, human IgG1, kappa, V domains shown, human-murine chimeric antibody, human IgG1/kappa constant regions) VH: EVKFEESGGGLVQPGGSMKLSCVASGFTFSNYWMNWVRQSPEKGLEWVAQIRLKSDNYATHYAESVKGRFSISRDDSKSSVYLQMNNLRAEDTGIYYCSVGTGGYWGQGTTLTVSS VL: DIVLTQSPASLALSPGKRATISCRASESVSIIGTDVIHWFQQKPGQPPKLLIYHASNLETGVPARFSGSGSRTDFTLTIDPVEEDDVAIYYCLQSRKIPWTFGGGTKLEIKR" observed_value=24800

# Maximum mean fluorescence intensity of S009-F3.45.21 (antibody, human IgG1, kappa, V domains shown, human-murine chimeric antibody, human IgG1/kappa constant regions) VH: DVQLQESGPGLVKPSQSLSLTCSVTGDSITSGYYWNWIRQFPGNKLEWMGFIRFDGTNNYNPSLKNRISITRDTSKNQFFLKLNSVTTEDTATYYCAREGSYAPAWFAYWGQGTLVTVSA VL: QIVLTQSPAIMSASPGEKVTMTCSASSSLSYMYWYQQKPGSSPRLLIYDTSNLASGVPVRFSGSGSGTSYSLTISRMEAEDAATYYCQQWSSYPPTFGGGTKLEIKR = 41100

From: patent US20250250357A1
